- Test system: SW-620 colon
- Experiment Summary: NCI tumour cell line growth inhibition, 48 h
Readings of TGI for the listed compounds

[
  {
    "Compound": "Cc1cn(C2CC(O)C(Cn3cc(Cn4nc(Br)c(=O)[nH]c4=O)nn3)O2)c(=O)[nH]c1=O (stereo not given)",
    "TGI": "> 100 µM"
  },
  {
    "Compound": "c1ccc(CN(Cc2ccccn2)Cn2cccn2)nc1",
    "TGI": "> 100 µM"
  },
  {
    "Compound": "COc1cc(/C=C/C=C2\\CC(C)C/C(=C\\C=C\\c3ccc(O)c(OC)c3)C2=O)ccc1O (stereo not given)",
    "TGI": "> 100 µM"
  },
  {
    "Compound": "COC(=O)[C@]12CCC(=O)N1[C@H](C(=O)O)Cc1c2[nH]c2ccccc12",
    "TGI": "> 100 µM"
  },
  {
    "Compound": "COC(=O)C1CC(C=O)=C(SC)N1 (stereo not given)",
    "TGI": "> 50 µM"
  }
]

* * *

- System: KM20L2 colon
- Experiment Summary: NCI tumour cell line growth inhibition, 48 h
Readings of TGI for the listed molecules

[
  {
    "Molecule": "COc1cc(C(N)=O)c(OC)c(OC)c1OC",
    "TGI": "> 100 µM"
  },
  {
    "Molecule": "O=C(O)c1oc2ccc([N+](=O)[O-])c3c2c1CCC3",
    "TGI": "> 100 µM"
  },
  {
    "Molecule": "CC1=C[C@H]2C[C@@]3(C)O[C@@H]([C@]4(C)CC[C@H]([C@@H](C)C(=O)O)OO4)CC3C(C)(C)[C@H]2CC1 (stereo partly drawn)",
    "TGI": "3.91 µM"
  }
]

* * *

- Test system: SF-539 CNS
- Experiment Summary: NCI tumour cell line growth inhibition, 48 h

[
  {
    "Compound": "Cc1[nH]nc(C(=O)N/N=C/c2cccs2)c1N=NN(C)C",
    "Test Target": "SF-539 CNS",
    "Result Qualifier": "=",
    "TGI / µM": 36.5
  },
  {
    "Compound": "Nc1nc(Cl)cc(NCCCCCCCCCCNc2cc(Cl)nc(N)n2)n1",
    "Test Target": "SF-539 CNS",
    "Result Qualifier": ">",
    "TGI / µM": 100
  },
  {
    "Compound": "O=C1CCCC2COc3ccc(O)c1c32 (configuration not stated)",
    "Test Target": "SF-539 CNS",
    "Result Qualifier": ">",
    "TGI / µM": 100
  },
  {
    "Compound": "CC1=C[C@H]2C[C@@]3(C)O[C@@H]([C@]4(C)CC[C@H]([C@@H](C)C(=O)O)OO4)CC3C(C)(C)[C@H]2CC1 (some centres not stated)",
    "Test Target": "SF-539 CNS",
    "Result Qualifier": "=",
    "TGI / µM": 3.57
  },
  {
    "Compound": "COCCOCCOCCOCCOc1ccc2c(c1)C(=O)c1nc3ncccc3c(=O)n1-2",
    "Test Target": "SF-539 CNS",
    "Result Qualifier": "=",
    "TGI / µM": 1.71
  },
  {
    "Compound": "Cc1cc2nnn(C3CCCO3)c2cc1C (configuration not stated)",
    "Test Target": "SF-539 CNS",
    "Result Qualifier": ">",
    "TGI / µM": 100
  },
  {
    "Compound": "S=C1OC2C3C4CC5C3C(O1)C1C5C4C21 (configuration not stated)",
    "Test Target": "SF-539 CNS",
    "Result Qualifier": ">",
    "TGI / µM": 100
  },
  {
    "Compound": "Clc1cccc(C2SCc3nc4ccccc4n32)c1Cl (configuration not stated)",
    "Test Target": "SF-539 CNS",
    "Result Qualifier": "=",
    "TGI / µM": 32.5
  },
  {
    "Compound": "CCOC(=O)c1cc2cc([N+](=O)[O-])ccc2oc1=O",
    "Test Target": "SF-539 CNS",
    "Result Qualifier": ">",
    "TGI / µM": 100
  },
  {
    "Compound": "Cc1cc(I)cc(CN(C)CCCCN2CCCC2)c1O",
    "Test Target": "SF-539 CNS",
    "Result Qualifier": "=",
    "TGI / µM": 28.7
  },
  {
    "Compound": "N#CC(/C(=N\\NC(N)=S)C(=O)NC1C2CC3CC(C2)CC1C3)c1ccc(Cl)cc1 (configuration not stated)",
    "Test Target": "SF-539 CNS",
    "Result Qualifier": ">",
    "TGI / µM": 100
  },
  {
    "Compound": "Cc1nc(-c2ccc(Cl)cc2)cn2c1nc1ccccc12",
    "Test Target": "SF-539 CNS",
    "Result Qualifier": ">",
    "TGI / µM": 100
  },
  {
    "Compound": "CCn1c(-c2cc3ccccc3cc2OC(=O)c2ccccc2)n[nH]c1=S",
    "Test Target": "SF-539 CNS",
    "Result Qualifier": ">",
    "TGI / µM": 50
  },
  {
    "Compound": "COc1ccc(N2C(=O)CSC2c2cc(OC)c(OC)c(OC)c2)cc1 (configuration not stated)",
    "Test Target": "SF-539 CNS",
    "Result Qualifier": ">",
    "TGI / µM": 100
  },
  {
    "Compound": "CC(=O)Oc1ccc(-c2c(OC(C)=O)c(OC(C)=O)c(-c3ccc(OC(C)=O)c(OC(C)=O)c3)c(OC(C)=O)c2OC(C)=O)cc1",
    "Test Target": "SF-539 CNS",
    "Result Qualifier": "=",
    "TGI / µM": 34.3
  },
  {
    "Compound": "CCOc1ccc(N2C(N)=NC(N)=NC2(C)C)cc1",
    "Test Target": "SF-539 CNS",
    "Result Qualifier": ">",
    "TGI / µM": 100
  },
  {
    "Compound": "Cc1cccc(/C=N/NC(=S)NC(C)(C)C)n1",
    "Test Target": "SF-539 CNS",
    "Result Qualifier": ">",
    "TGI / µM": 100
  },
  {
    "Compound": "NC(=O)CN1CCN(c2nc(N3CCCC3)c3nc(Cl)c(NCc4ccccc4)nc3n2)CC1",
    "Test Target": "SF-539 CNS",
    "Result Qualifier": "=",
    "TGI / µM": 17.5
  },
  {
    "Compound": "CC(Cl)CC(=O)Nc1ccc2c(c1)oc(=O)c1cc(NC(=O)CC(C)Cl)ccc12 (configuration not stated)",
    "Test Target": "SF-539 CNS",
    "Result Qualifier": "=",
    "TGI / µM": 33.1
  },
  {
    "Compound": "O=C(O)C1(Cc2ccc3c(c2)CCC3)Cc2cc3c(cc2C1)CCC3",
    "Test Target": "SF-539 CNS",
    "Result Qualifier": ">",
    "TGI / µM": 100
  },
  {
    "Compound": "CCCS(=O)OC1C(C2COC(C)(C)O2)OC2OC(C)(C)OC21 (configuration not stated)",
    "Test Target": "SF-539 CNS",
    "Result Qualifier": "=",
    "TGI / µM": 38.4
  }
]

* * *

- Tested on: RXF 393 renal
- Experiment Summary: NCI tumour cell line growth inhibition, 48 h
Readings of TGI for the listed compounds

[
  {
    "Compound": "Cc1ccc(C)c(NC(=O)CCc2n[nH]c(=S)o2)c1",
    "Test Target": "RXF 393 renal",
    "TGI": "> 100 µM"
  },
  {
    "Compound": "CN1C(C(=O)Nc2ccccn2)=C(O)c2ccccc2S1(=O)=O",
    "Test Target": "RXF 393 renal",
    "TGI": "> 100 µM"
  },
  {
    "Compound": "Cc1cc(Br)cc(C)c1NC(=O)C(=O)C(C(=O)c1ccc(Cl)c(Cl)c1)C1OC(=O)c2ccccc21 (stereo unspecified)",
    "Test Target": "RXF 393 renal",
    "TGI": "> 100 µM"
  },
  {
    "Compound": "CCn1c(-c2cc3ccccc3cc2OC(=O)c2ccccc2)n[nH]c1=S",
    "Test Target": "RXF 393 renal",
    "TGI": "> 50 µM"
  },
  {
    "Compound": "Nc1ncc(Cc2nn3c(COc4ccc(Cl)cc4)nnc3s2)s1",
    "Test Target": "RXF 393 renal",
    "TGI": "> 100 µM"
  },
  {
    "Compound": "CC(=O)Nc1oc(C)nc1C#N",
    "Test Target": "RXF 393 renal",
    "TGI": "> 100 µM"
  }
]
